# Procedure summary: Inhibition of telomerase by TRAP assay
# Design: species or system Homo sapiens
Hi! Just check whether IC50 is below 3 µM. Below gives yes, equal or above gives no.

| Line notation | Classification |
| --- | --- |
| c1ccc2c(NCCN3CCOCC3)c3[nH]c4ccccc4c3nc2c1 | yes |
| CN(C)CCNc1c2ccccc2nc2c1[nH]c1ccccc12 | yes |
| CN(C)CCCNc1c2ccccc2nc2c1[nH]c1ccccc12 | yes |
| OCCNc1c2ccccc2nc2c1[nH]c1ccccc12 | yes |
| OCCCNc1c2ccccc2nc2c1oc1ccccc12 | no |
| OCCCNc1c2ccccc2nc2c1[nH]c1ccccc12 | yes |
| OCCNc1c2ccccc2nc2c1oc1ccccc12 | no |
| CN(C)CCNc1c2ccccc2nc2c1oc1ccccc12 | no |
| CN(C)CCCNc1c2ccccc2nc2c1oc1ccccc12 | no |
| c1ccc2nc3c(cc2c1)[nH]c1ccccc13 | no |
| c1ccc2c(NCCN3CCOCC3)c3oc4ccccc4c3nc2c1 | no |

* * *

Recorded measurements of pKa, one per entry
# Procedure summary: Dissociation constant, pKa of the compound
# Format: physicochemical

| Line notation | pKa |
| --- | --- |
| CN(C)CCNc1c2ccccc2nc2c1oc1ccccc12 | 8.2 |
| OCCCNc1c2ccccc2nc2c1oc1ccccc12 | 8.2 |
| c1ccc2c(NCCN3CCOCC3)c3[nH]c4ccccc4c3nc2c1 | 8.4 |
| CN(C)CCNc1c2ccccc2nc2c1[nH]c1ccccc12 | 8.3 |
| c1ccc2nc3c(cc2c1)[nH]c1ccccc13 | 4.2 |
| c1ccc2c(NCCN3CCOCC3)c3oc4ccccc4c3nc2c1 | 8.2 |
| CN(C)CCCNc1c2ccccc2nc2c1[nH]c1ccccc12 | 8.4 |
| CN(C)CCCNc1c2ccccc2nc2c1oc1ccccc12 | 8.3 |
| OCCNc1c2ccccc2nc2c1oc1ccccc12 | 8.2 |
| OCCNc1c2ccccc2nc2c1[nH]c1ccccc12 | 8.3 |
| OCCCNc1c2ccccc2nc2c1[nH]c1ccccc12 | 8.3 |
